# protocol notes: Anticonvulsant activity administered orally to rat for toxicity
# condition context: in vivo, po

line notation | TD50
CC1(C)C(C(=O)NCC(N)=O)C1(C)C | > 500 mg/kg

###

In this section, each of the molecules is paired with its reported TD50.
# protocol notes: Quantitative Anticonvulsant activity administered intraperitoneally to mouse for toxicity
# condition context: in vivo, ip

line notation | result units | TD50
CC1(C)C(C(=O)NC(N)=O)C1(C)C | mg/kg | 168
CONC(=O)C1C(C)(C)C1(C)C | mg/kg | 116

###

# Test system: Mus musculus
# protocol notes: Anti convulsant activity administered intra peritoneally to mouse for subcutaneous metrazol test at 0.5 hr with dose of 30 mg/kg; 0/1= No of animals protected /No of animals tested
# Assay type: functional
In this section, each of the compounds is paired with its reported Activity.
measurement type: Activity

line notation | measurement type | result
CC1(C)C(C(=O)NCCO)C1(C)C | Activity | 0
CNC(=O)N(C)C(=O)C1C(C)(C)C1(C)C | Activity | 0
CC1(C)C(C(=O)NCCS(=O)(=O)[O-])C1(C)C.[Na+] | Activity | 0
CONC(=O)C1C(C)(C)C1(C)C | Activity | 0
CCN(CCO)C(=O)C1C(C)(C)C1(C)C | Activity | 0
CCNC(=O)C1C(C)(C)C1(C)C | Activity | 0
CC1(C)C(C(=O)NO)C1(C)C | Activity | 0

###

In this section, each of the compounds is paired with its reported TD50.
# protocol notes: Anticonvulsant activity administered intra peritoneally to mouse for toxicity
# condition context: in vivo, ip

line notation | TD50 [mg/kg]
CC1(C)C(C(=O)NCO)C1(C)C | 146
CNC(=O)C1C(C)(C)C1(C)C | 153
